Below is a list of entries, each paired with its recorded GI50 value.
Test system: MALME-3M melanoma
assay.overview: NCI tumour cell line growth inhibition, 48 h

Study these solved cases before continuing.
CCOc1ccc(C(C)=O)cc1NC(=O)c1cccc(-c2nnn(CC)n2)c1 : 11400 nM
CCC[CH2][Sn]([CH2]CCC)([O]C(=O)c1cccc(F)c1F)[O]C(=O)c1cccc(F)c1F : 585 nM

Determine from records and report GI50 for CCc1nc2cc(/C=C/C(=O)NO)ccc2c(=O)n1CCc1ccc(OC)cc1
1530 nM

Determine from records and report GI50 for COc1ccc2c(c1)O/C(=C\c1cccc(OCC(=O)Nc3nc(C)c(C)s3)c1)C2=O
1800 nM

Determine from records and report GI50 for COc1ccc(-c2nc(N)c(C#N)c3c2CCOc2c-3ccc3ccccc23)cc1
15200 nM
